target_or_test_system: T1, 4H3920-AA
T1 chain: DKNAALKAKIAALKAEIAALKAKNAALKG
method_summary: two-hybrid library CCmax;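 further: natural log of median RNA to DNA barcode read ratio; higher means stronger binding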
condition_set: mean of both orientations
interaction score by entry:
observable: interaction score

binder | val
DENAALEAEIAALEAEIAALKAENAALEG [4H1035-AA] | 1.9
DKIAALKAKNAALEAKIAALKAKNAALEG [4H2991-AA] | -1.73
DEIAALEAKNAALEAEIAALEAKNAALEG [4H391-AA] | -1.23
DKIAALKAKNAALKAENAALEAKIAALEG [4H3029-AA] | -1.69
